Target Desc: T1, human B7-H4 (purified monomeric recombinant human protein, ACRO biosystems) (human, UniProt Q7Z7D3 29-258, limits assumed, chemically biotinylated (EZ-Link NHS-LC-Biotin) in the yeast display and competition experiments; non-biotinylated in SPR)
T1 construct: Bought recombinant monomeric protein; also called B7x; B7S1
T1 sequence: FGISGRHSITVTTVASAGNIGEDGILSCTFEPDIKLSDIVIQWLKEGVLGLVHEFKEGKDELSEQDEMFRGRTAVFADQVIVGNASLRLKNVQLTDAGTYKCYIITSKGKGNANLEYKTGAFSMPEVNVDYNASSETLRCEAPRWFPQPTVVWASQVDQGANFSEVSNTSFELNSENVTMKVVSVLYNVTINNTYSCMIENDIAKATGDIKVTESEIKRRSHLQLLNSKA
Experiment Notes: SPR (Carterra LSA); scFv-Fc captured on anti-human IgG Fc, antigen injected
Measured Parameter: koff

// field: koff; key: A07 scFv-Fc (scFv, V domains shown, Tested as scFv-Fc fusion (human IgG1 Fc, vector pDNL9) in crude yeast supernatant; Combo 2 library) VH: EVQLVESGGGVVQPGRSLRLSCAASGFTFSSRSMNWVRQAPGKGLEWVSAISGSGSTVYYADSVKGRFTISRDNSKNTLYLQMNSLRAEDTAVYYCARKRWYGMDVWGQGTTVTVSS VL: SYELTQPPSVSVAPGKTARITCGGNNIGSKSVHWYQQKPGQAPVLVVYDDSDRPSGIPERFSGSNSGNTATLTISRVEAGDEADYYCQVWDSRTYVFGTGTKLTVL ; value = 4.7e-05 s⁻¹

Query B09 scFv-Fc (scFv, V domains shown, Tested as scFv-Fc fusion (human IgG1 Fc, vector pDNL9) in crude yeast supernatant; Combo 2 library) VH: EVQLVESGGGVVQPGRSLRLSCAASGFTYSSRAMNWVRQAPGKGLEWVSAISSSGTTTYYADSVKGRFTISRDNSKNTLYLQMNSLRAEDTAVYYCARKRWYGMDVWGQGTTVTVSS VL: SYELTQPPSVSVAPGKTARITCGGNNIGSKSVHWYQQKPGQAPVLVVYDDSDRPSGIPERFSGSNSGNTATLTISRVEAGDEADYYCQVWDRGMIFGTGTKLTVL yields koff of 2.5e-05 s⁻¹

// recorded koff for B07 scFv-Fc (scFv, V domains shown, Tested as scFv-Fc fusion (human IgG1 Fc, vector pDNL9) in crude yeast supernatant; Combo 2 library) VH: EVQLVESGGGVVQPGRSLRLSCAASGFTFGDRAMNWVRQAPGKGLEWVSAISGSGATTYYADSVKGRFTISRDNSKNTLYLQMNSLRAEDTAVYYCARKRWYGMDVWGQGTTVTVSS VL: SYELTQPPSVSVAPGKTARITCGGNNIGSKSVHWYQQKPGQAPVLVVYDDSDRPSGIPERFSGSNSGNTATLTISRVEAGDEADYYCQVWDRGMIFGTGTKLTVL : 1.8e-05 s⁻¹
